# zone of inhibition at 100 µg/mL per entry
test system: Aspergillus flavus; experiment: Antifungal activity against Aspergillus flavus MTCC 277 at 100 ug/ml after 48 hrs by agar cup diffusion method; type: functional; conditions: MTCC 277, 48 h, read-out: DIZ
The answer is to be given in mm; state only the numeric part.

Look up zone of inhibition at 100 µg/mL for this molecule: O=c1c2ccccc2nc(-c2ccccc2)n1Cc1cn(CCC(F)(F)C(F)(F)C(F)(F)C(F)(F)C(F)(F)C(F)(F)F)nn1
12

GET /values?readout=zone of inhibition at 100 µg/mL&item= FC(F)(F)C(F)(F)C(F)(F)C(F)(F)C(F)(F)C(F)(F)C(F)(F)C(F)(F)CCn1nncc1COc1nc(-c2ccccc2)nc2ccccc12
9

Look up zone of inhibition at 100 µg/mL for this molecule: FC(F)(F)C(F)(F)C(F)(F)C(F)(F)C(F)(F)C(F)(F)CCn1cc(COc2nc(-c3ccccc3)nc3ccccc23)nn1
9
